- target-system: RAB39B_C23 (Homo sapiens, UniProt Q96DA2)
- Construct: endogenous in cells; host or cells: 22Rv1
- Sequence (Q96DA2 1-213): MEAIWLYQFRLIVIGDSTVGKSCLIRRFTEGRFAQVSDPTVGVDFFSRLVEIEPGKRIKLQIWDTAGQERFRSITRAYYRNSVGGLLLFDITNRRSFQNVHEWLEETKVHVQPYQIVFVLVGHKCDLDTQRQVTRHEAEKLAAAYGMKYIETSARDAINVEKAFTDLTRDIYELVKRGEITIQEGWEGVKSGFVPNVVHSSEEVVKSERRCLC
- measurement-description: IA-DTB cysteine engagement
- Assay type: binding
- condition-summary: 22Rv1 cells, 20 μM probe, 1 h, relative to DMSO
reported-metric: % engagement RAB39B_C23 (%)

{"molecule": "C=CC(=O)N1C[C@H](c2ccc(Br)cc2)[C@@H]1C(=O)Nc1cccc2cccnc12", "reported-metric": "% engagement RAB39B_C23", "unit-symbol": "%", "measured-value": 18.5}

P = C=CC(=O)N1C[C@H](c2ccc(Br)cc2)[C@H]1C(=O)Nc1cccc2cccnc12 [MY-3A]
Q = C=CC(=O)N1C[C@@H](c2ccc(Br)cc2)[C@H]1C(=O)Nc1cccc2cccnc12
R = C=CC(=O)N1C[C@H](c2ccc(Br)cc2)[C@H]1C(=O)Nc1cccc2cccnc12 [MY-3B]
IN: Highest % engagement RAB39B_C23 first, then in falling order down to the smallest. Note for the reader: the ranking is given by listing the labels in the order requested.
OUT: R, Q, P
